These measurements were taken from patent US20260337214A1.

# Test details: pH-potentiometric titration combined with EDTA competition assay
# Format: physicochemical
# Assay conditions: water, 0.1 m nacl; pH-potentiometric titration, 1 molar equiv. Fe^3+; estimated; read-out: pKa (deprotonation of ML to MLH−1)
Parameter measured: pKa

> print(dat)
                                   molecule  numeric.value
1  O=C(O)CN(CC(=O)O)C1CCCCC1N(CC(=O)O)CC(=O)Nc1cc(C(F)(F)F)cc(C(F)(F)F)c1.[Fe+3] (stereo not shown) [Fe-CDTA-Ph-3,5-CF3]            4.9
